# maps each entry to its viability
- Experiment summary: growth suppression of beta-catenin knockout HCT116, pilot screen, human colon tumor cells (AID 823);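 note: 0% = wells killed by 20 µM Hyamine and 100% = untreated DMSO cell wells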
- Test parameters: CellTiter-Glo, 60 h, at 10 µM, active compounds read low
Records with an inconclusive call do not appear.
Result type: viability (%)

Compound	Data value
COc1ccc(-c2nnc3ccc(SCC(=O)N4CCCCC4)nn23)cc1OC	98.3
CC1(C)C(c2ccc(Cl)cc2)=[N+]([O-])C2(CCCC/C2=N\O)N1O (stereo unspecified)	96.5
COc1ccc(Cl)cc1N(CC(=O)Nc1ccc2c(c1)OCCO2)S(C)(=O)=O	92.7
COc1ccc(C(=O)N2CCN(S(=O)(=O)c3ccc(C)cc3C)CC2)cc1OC	93.2
O=C(CN1C(=O)CCC1=O)Nc1nc(-c2ccccn2)cs1	106
Cc1c(C#N)c2ccccc2n1CCOc1ccccc1F	69.8
Cn1c(=O)oc2cc(S(=O)(=O)N3CCC(N4CCCCC4)CC3)ccc21	98.7
C=CCn1c(C(C)NC(=O)CCC)nc2ccccc21 (stereo unspecified)	104
CCN(CC)CCCNC(=O)Cn1cc2c(n1)CCC(C)C2 (stereo unspecified)	96.9
Cc1ccc(S(=O)(=O)c2nc(S(C)(=O)=O)sc2N(C)C)cc1	86
CCOc1ccc(C2NC(=O)c3n[nH]c(C)c32)cc1 (stereo unspecified)	107

---

- Experiment summary: inhibitors of the yeast RAM network, pilot screen, dse1pr::URA3 reporter, 5-FOA selection (AID 869);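 note: 0% = DMSO wells with no growth and 100% = 10 µM 1-NA-PP1 with full growth; RAM network block rescues cells from 5-FOA so hits raise OD615 growth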
- Test parameters: S. cerevisiae dse1pr::URA3 5-FOA growth, OD615, 2 d; at 10 µM; active compounds read high; strain carries analog-sensitive mutant Cbk1 kinase
Label scheme for inhibition: lower than 0.8% is No, 0.8% and above is Yes.

Compound	Answer label
COc1ccc(C2NC(=O)NC(C)=C2C(=O)Nc2cccc(C)c2C)cc1 (stereo unspecified)	No
COc1cccc(C2CC(c3cccc(OC)c3)n3nc(N)nc3N2)c1 (stereo unspecified)	No
OCCNCCCCCOc1ccc(F)cc1	Yes
Cc1cc(C2N=C(N)Nc3nc4ccccc4n32)c(C)n1-c1ccccc1Cl (stereo unspecified)	Yes
O=C(O)CCc1ccc(-c2cccs2)n1NC(=O)c1ccc(Cl)cc1	No
COc1cc(C2NC(=O)NC(C)=C2C(=O)OCc2ccc(C)cc2)cc(OC)c1O (stereo unspecified)	No

---

- Experiment summary: inhibitors of the yeast RAM network, pilot screen, dse1pr::URA3 reporter, 5-FOA selection (AID 869);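 note: 0% = DMSO wells with no growth and 100% = 10 µM 1-NA-PP1 with full growth; RAM network block rescues cells from 5-FOA so hits raise OD615 growth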
- Test parameters: S. cerevisiae dse1pr::URA3 5-FOA growth, OD615, 2 d; at 10 µM; active compounds read high; strain carries analog-sensitive mutant Cbk1 kinase
Active and inactive are the calls of the source.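 The calls were made as follows: active = inhibition over a set limit, the all-compound mean plus 3 SD, in both replicate runs; inconclusive = over that limit in just one replicate run; inactive = at or under that limit in both runs.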
# maps each entry to its inhibition
Result type: inhibition

Chemical smiles	Result type	Data value
Cc1ccccc1C(=O)OCn1nnc2ccccc2c1=O	inhibition	1.44% (inactive)
O=C(CSc1nc2ncccc2[nH]1)NCc1ccccc1	inhibition	3.13% (inactive)
Cn1c(=O)c2c(SCC(=O)N3CCC(Cc4ccccc4)CC3)nc(C3CC3)nc2n(C)c1=O	inhibition	1.28% (inactive)
COc1ccc(S(=O)(=O)Cc2ccc(C(=O)N3CCC(C(N)=O)CC3)o2)cc1	inhibition	2.22% (inactive)
CCOC(=O)c1c(C)oc2cc(Br)c(OC(=O)N3CCOCC3)cc12	inhibition	0.13% (inactive)
COc1ccc2c(Cl)c(-c3nnc(SCC(N)=O)n3C)sc2c1	inhibition	1.43% (inactive)
